- Tested on: L1210 leukemia ip in BDF1 mice, survival T/C
- assay.summary: NCI In Vivo Anticancer Drug Screen. Data for tumor model L1210 Leukemia (intraperitoneal) in B6D2F1 (BDF1) mice
- measurement.parameters: endpoint: mean survival time; dose: 100.0 mg/kg/injection; schedule: Q01DX009 (ip); vehicle: saline with Tween-80; higher = longer survival
Inconclusive results and toxic doses are left out.
Measured T/C values are reported for all entries that follow.

Below, 4 molecules whose answers are already recorded.
{"columns": ["molecule", "T/C"],
 "data": [
  ["CC1(C(=O)O)OCCO1", "94 % of control"],
  ["CCC1CN2CCc3cc(OC)c(OC)cc3C2CC1O (stereo not given)", "97 % of control"],
  ["Clc1ccc(-c2nnc(-c3cccc4ccccc34)o2)cc1Cl", "89 % of control"],
  ["CC(C)CC(Br)C(=O)NC(CC(C)C)C(=O)O (stereo not given)", "96 % of control"]
]}

[Q] System L1210 leukemia ip in BDF1 mice, survival T/C. Read-out T/C. Item "CN(C)c1ccc(/C=C2\SC(=S)N(c3ccccc3)C2=O)cc1" . Report value.
[A] 103 % of control

[Q] System L1210 leukemia ip in BDF1 mice, survival T/C. Read-out T/C. Item "O=Cc1cscc1-c1cscc1C=O" . Report value.
[A] 95 % of control

###

- Test system: L1210 leukemia ip in BDF1 mice, survival T/C
- assay.summary: NCI In Vivo Anticancer Drug Screen. Data for tumor model L1210 Leukemia (intraperitoneal) in B6D2F1 (BDF1) mice
- measurement.parameters: endpoint: mean survival time; dose: 100.0 mg/kg/injection; schedule: Q04DX003 (ip); vehicle: saline; higher = longer survival
Inconclusive results and toxic doses are left out.
measure: T/C

[Q] Quick one: give measured T/C for "O=[N+]([O-])c1cc(-c2ccccc2)cc([N+](=O)[O-])c1Cl"
[A] 96 % of control

[Q] Quick one: give measured T/C for CC(O)(CC(c1ccccc1)N1CCc2ccccc2C1)c1ccccc1 (centres undefined)
[A] 105 % of control

[Q] Quick one: give measured T/C for COC(=O)CCCCCCCCC(C)c1ccccc1 (centres undefined)
[A] 103 % of control

[Q] Quick one: give measured T/C for "Nc1ccc2nc[nH]c2c1"
[A] 101 % of control

[Q] Quick one: give measured T/C for "Cn1c(=S)[nH]c2cc(Cl)c(Cl)cc21"
[A] 100 % of control

[Q] Quick one: give measured T/C for "CC(C)(C)OC(=O)N1Cc2cc3ccccc3nc2C1"
[A] 96 % of control

[Q] Quick one: give measured T/C for "CNC(=O)c1nc(C)c(C)nc1OCc1ccccc1"
[A] 96 % of control

[Q] Quick one: give measured T/C for "CC(C)(C)C(=O)CN"
[A] 101 % of control

[Q] Quick one: give measured T/C for "Clc1ccc2c(c1)ncn1nnnc21"
[A] 104 % of control

[Q] Quick one: give measured T/C for "Nc1nc2ccccc2nc1N"
[A] 101 % of control

[Q] Quick one: give measured T/C for "Nc1ccc(OCc2ccc(S(=O)(=O)F)c(Cl)c2)c(Cl)c1"
[A] 93 % of control

[Q] Quick one: give measured T/C for "O=C(CCl)N1c2ccccc2Oc2cc3ccccc3cc21"
[A] 95 % of control

[Q] Quick one: give measured T/C for "CC(=O)CC(C)(C)c1ccccc1"
[A] 103 % of control

[Q] Quick one: give measured T/C for "Nc1ncnc2c1cnn2CCCl"
[A] 106 % of control

###

- Test system: L1210 leukemia ip in BDF1 mice, survival T/C
- assay.summary: NCI In Vivo Anticancer Drug Screen. Data for tumor model L1210 Leukemia (intraperitoneal) in B6D2F1 (BDF1) mice
- measurement.parameters: endpoint: mean survival time; dose: 200.0 mg/kg/injection; schedule: Q01DX009 (ip); vehicle: saline with Tween-80; higher = longer survival
Toxic doses and inconclusive results are not listed.
measure: T/C

Below, 2 compounds whose answers are already recorded.
{"columns": ["compound", "measure", "data.value"],
 "data": [
  ["COc1ccc(C(=O)CCCCl)c(OC)c1", "T/C", "93 % of control"],
  ["O=C(CNC(c1ccccc1)(c1ccccc1)c1ccccc1)OC(c1ccccc1)c1ccccc1", "T/C", "89 % of control"]
]}

[Q] Quick one: give measured T/C for "COc1cc(OC)c(NC(=S)Nc2ccc([N+](=O)[O-])cc2)cc1Cl"
[A] 90 % of control

[Q] Quick one: give measured T/C for "CC(C)NC(=O)Oc1cccc(NC(=O)N(C)C)c1"
[A] 93 % of control

[Q] Quick one: give measured T/C for C[Si](C)(C)C1C=Cc2ccccc2C1[Si](C)(C)C (centres undefined)
[A] 91 % of control

[Q] Quick one: give measured T/C for "Cc1noc2nc(Cl)cnc12"
[A] 110 % of control

[Q] Quick one: give measured T/C for "C[As](C)Sc1ccnc(S[As](C)C)n1"
[A] 107 % of control

[Q] Quick one: give measured T/C for "CCOc1ccccc1NC(=O)c1cccc(F)c1"
[A] 104 % of control

[Q] Quick one: give measured T/C for "C/C(=N/O)c1ccc(/C(C)=N/O)cc1"
[A] 107 % of control

[Q] Quick one: give measured T/C for "CCC(C)(CC)OC(N)=O"
[A] 93 % of control

[Q] Quick one: give measured T/C for CC(C)C1(O)C2C3CCC(C3)C2C(=O)C2C3CCC(C3)C21 (centres undefined)
[A] 93 % of control

[Q] Quick one: give measured T/C for "COC(=O)c1c(Cl)c(Cl)c(Cl)c(Cl)c1C(=O)OC"
[A] 91 % of control

[Q] Quick one: give measured T/C for "Nc1cc(O)cc(O)c1"
[A] 95 % of control

[Q] Quick one: give measured T/C for O=C(O)C1CCC(CC2CC3CCC2C3)CC1 (centres undefined)
[A] 96 % of control

[Q] Quick one: give measured T/C for "Cc1c(Cl)cccc1NC(=O)Oc1ccc(Cl)cc1"
[A] 87 % of control

[Q] Quick one: give measured T/C for "COc1ccc(C)cc1NC(=O)SCc1ccccc1"
[A] 101 % of control

[Q] Quick one: give measured T/C for CC(C)C1=CC23CCC4C(C)(C(=O)O)CCCC4(C)C2CC13 (centres undefined)
[A] 90 % of control

[Q] Quick one: give measured T/C for CC=C(C)c1ccccc1 (mixture of isomers)
[A] 94 % of control

###

- System: L1210 leukemia ip in BDF1 mice, survival T/C
- assay.summary: NCI In Vivo Anticancer Drug Screen. Data for tumor model L1210 Leukemia (intraperitoneal) in B6D2F1 (BDF1) mice
- measurement.parameters: endpoint: mean survival time; dose: 400.0 mg/kg/injection; schedule: Q01DX001 (ip); vehicle: saline; higher = longer survival
Toxic doses and inconclusive results are not listed.
Measured T/C values are reported for all entries that follow.

{"columns": ["molecule", "T/C"],
 "data": [
  ["CCC(CC)=NNc1ccc([N+](=O)[O-])cc1[N+](=O)[O-]", "97 % of control"],
  ["Nc1nc[nH]c1C(=O)NO", "92 % of control"],
  ["O=[N+]([O-])c1ccc(-c2nn[nH]n2)cc1", "105 % of control"],
  ["O=S(=O)(c1ccccc1)C1CC1c1ccc(Cl)cc1 (stereo not drawn)", "98 % of control"]
]}

[Q] Quick one: give measured T/C for "Nc1ncn(C(=S)Nc2ccccc2)n1"
[A] 98 % of control

[Q] Quick one: give measured T/C for "N=C(N)SCCN"
[A] 118 % of control

[Q] Quick one: give measured T/C for CCSC1OC(C(COC(C)=O)OC(C)=O)C(OC(C)=O)C1NC(=O)OCc1ccccc1 (stereo not drawn)
[A] 91 % of control

[Q] Quick one: give measured T/C for "CCCC1=CN(Cc2ccccc2)c2ccccc2C1"
[A] 97 % of control

[Q] Quick one: give measured T/C for "CCCCCCCCCCCCc1cc2ccccc2c2ccccc12"
[A] 89 % of control

###

- Tested on: L1210 leukemia ip in BDF1 mice, survival T/C
- assay.summary: NCI In Vivo Anticancer Drug Screen. Data for tumor model L1210 Leukemia (intraperitoneal) in B6D2F1 (BDF1) mice
- measurement.parameters: endpoint: mean survival time; dose: 400.0 mg/kg/injection; schedule: Q01DX009 (ip); vehicle: Klucel (hydroxypropylcellulose) (HPC); higher = longer survival
Inconclusive results and toxic doses are left out.
measure: T/C

Below, 4 compounds whose answers are already recorded.
{"columns": ["compound", "T/C"],
 "data": [
  ["O=C(Nc1cc(Cl)ccc1Cl)c1cccc(Cl)c1", "97 % of control"],
  ["O=C(NCCBr)c1cccc2ccccc12", "95 % of control"],
  ["CC(=O)Nc1ccc(NC(=O)Nc2cccc(Cl)c2C)cc1", "91 % of control"],
  ["CCOC(=O)C(Cc1c[nH]c2ccccc12)(NC=O)C(=O)OCC", "91 % of control"]
]}

Alright, here's another compound for you.
[Q] System L1210 leukemia ip in BDF1 mice, survival T/C. Read-out T/C. Item "CCOc1ccccc1NC(=O)COc1ccc(Cl)cc1" . Report value.
[A] 97 % of control
